# System: DNA aptamer or structured DNA CTTACGACAAGGGATGTCTGTTAGTGTGTCGGTGCATTGTCGTAAG
# statedConditions: 10 mM Tris-HCl, pH 7.4
observationType: pKd
pKd here is simply -log10 of the concentration when that concentration is written in mol/L.

Form field: reported pKd of COC(=O)[C@@H]1C2CCC(C[C@@H]1OC(=O)c1ccccc1)N2C (stereo partly specified)
6.48

###

# System: DNA aptamer or structured DNA GGGACGACGCAGCAGTCCATCTCTCAGCGAGTTCGTCAGTCGTCCC
# statedConditions: 10 mM Tris-HCl, pH 7.4
observationType: pKd
pKd here is simply -log10 of the concentration when that concentration is written in mol/L.

Form field: reported pKd of `COc1ccc2c3c1O[C@H]1C(=O)CC[C@@]4(O)[C@@H](C2)N(C)CC[C@]314`
5.65
